Data provenance: ChEMBL document CHEMBL1134984

Binding intensity overview
target: Receptor-type tyrosine-protein phosphatase C (Homo sapiens); assay: Binding Intensity against CD45+ HH-leukemic cells at 5 ug/mL; type: cell-based
Write the quantity with the unit trailing the number.

Take a look at these entries with their results.
INSERT INTO measurements (query_smiles, metric_name, result) VALUES
  ('O=C(O)CCC/N=C/C1C(=O)NC(=O)NC1=O', 'Binding intensity', '25%'),
  ('O=C1NC(=O)C(C(c2ccnc3ccccc23)C2C(=O)NC(=O)NC2=O)C(=O)N1', 'Binding intensity', '25%'),
  ('O=[N+]([O-])c1ccc(NN=C(c2ccc(O)cc2)c2ccc(O)cc2)c([N+](=O)[O-])c1', 'Binding intensity', '50%');

Note: attention shifts to another entry.
Receptor-type tyrosine-protein phosphatase C (Homo sapiens) Binding intensity of Nc1ccc(C(=NNc2ccc([N+](=O)[O-])cc2[N+](=O)[O-])c2ccc(N)cc2)cc1 is 25%
